# Tested on: P. asymbiotica subsp. australis cells
# Measurement protocol: Cell aggregation (cross-linking) assay
# Assay type: cell-based, Photorhabdus asymbiotica subsp. australis
# Condition context: three independent measurements
Observed property: The lowest concentration able to aggregate P. asymbiotica cells (mM)
Return type: number; implicit unit mM.

The lowest concentration able to aggregate P. asymbiotica cells recorded for this compound, C[C@@H]1O[C@@H](CCn2cc(COc3c4cccc3Cc3cccc(c3OCc3cn(CC[C@@H]5O[C@@H](C)[C@@H](O)[C@@H](O)[C@@H]5O)nn3)Cc3cccc(c3OCc3cn(CC[C@@H]5O[C@@H](C)[C@@H](O)[C@@H](O)[C@@H]5O)nn3)Cc3cccc(c3OCc3cn(CC[C@@H]5O[C@@H](C)[C@@H](O)[C@@H](O)[C@@H]5O)nn3)C4)nn2)[C@@H](O)[C@H](O)[C@@H]1O , is 5

The lowest concentration able to aggregate P. asymbiotica cells recorded for this compound, C[C@@H]1O[C@@H](CCn2cc(COc3c4cc(C(C)(C)C)cc3Cc3cc(C(C)(C)C)cc(c3OCc3cn(CC[C@@H]5O[C@@H](C)[C@@H](O)[C@@H](O)[C@@H]5O)nn3)Cc3cc(C(C)(C)C)cc(c3OCc3cn(CC[C@@H]5O[C@@H](C)[C@@H](O)[C@@H](O)[C@@H]5O)nn3)Cc3cc(C(C)(C)C)cc(c3OCc3cn(CC[C@@H]5O[C@@H](C)[C@@H](O)[C@@H](O)[C@@H]5O)nn3)C4)nn2)[C@@H](O)[C@H](O)[C@@H]1O , is 1.25

The lowest concentration able to aggregate P. asymbiotica cells recorded for this compound, C[C@@H]1O[C@@H](CCn2cc(COCC(COCc3cn(CC[C@@H]4O[C@@H](C)[C@@H](O)[C@@H](O)[C@@H]4O)nn3)(COCc3cn(CC[C@@H]4O[C@@H](C)[C@@H](O)[C@@H](O)[C@@H]4O)nn3)COCc3cn(CC[C@@H]4O[C@@H](C)[C@@H](O)[C@@H](O)[C@@H]4O)nn3)nn2)[C@@H](O)[C@H](O)[C@@H]1O , is 0.625

---

# Target or system: PHL (Photorhabdus asymbiotica, UniProt C7BLE4)
# Sequence (C7BLE4 entry or part of it): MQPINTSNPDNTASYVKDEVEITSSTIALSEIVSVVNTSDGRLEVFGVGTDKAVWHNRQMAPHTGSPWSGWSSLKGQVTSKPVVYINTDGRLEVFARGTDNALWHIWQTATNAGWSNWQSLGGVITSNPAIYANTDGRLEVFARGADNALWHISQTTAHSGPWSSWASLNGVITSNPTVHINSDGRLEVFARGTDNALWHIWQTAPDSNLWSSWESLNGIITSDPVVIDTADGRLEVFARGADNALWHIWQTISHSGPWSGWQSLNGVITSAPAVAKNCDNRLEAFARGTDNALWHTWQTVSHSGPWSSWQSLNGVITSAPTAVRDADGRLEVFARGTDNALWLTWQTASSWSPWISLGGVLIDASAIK
# Measurement protocol: Isothermal titration calorimetry of PHL with ligands
# Type: binding
# Condition context: ITC at 25 °C
Decide using Kd alone. Strictly below 40 µM: met. Equal to or above 40 µM: not met.

Just wondering, is Kd of C[C@@H]1O[C@@H](CCn2cc(COCC(COCc3cn(CC[C@@H]4O[C@@H](C)[C@@H](O)[C@@H](O)[C@@H]4O)nn3)(COCc3cn(CC[C@@H]4O[C@@H](C)[C@@H](O)[C@@H](O)[C@@H]4O)nn3)COCC(COCc3cn(CC[C@@H]4O[C@@H](C)[C@@H](O)[C@@H](O)[C@@H]4O)nn3)(COCc3cn(CC[C@@H]4O[C@@H](C)[C@@H](O)[C@@H](O)[C@@H]4O)nn3)COCc3cn(CC[C@@H]4O[C@@H](C)[C@@H](O)[C@@H](O)[C@@H]4O)nn3)nn2)[C@@H](O)[C@H](O)[C@@H]1O [Dendrimer 9] below 40 µM?
met

Just wondering, is Kd of C[C@H](O)[C@@H](O)[C@@H](O)[C@H](O)C=O [L -Fuc, L-fucose, reference compound] below 40 µM?
not met

Just wondering, is Kd of CO[C@@H]1O[C@@H](C)[C@@H](O)[C@@H](O)[C@@H]1O [α-Me-Fuc, methyl α-L-fucopyranoside, reference compound] below 40 µM?
not met

Just wondering, is Kd of C[C@@H]1O[C@@H](CCn2cc(COCC(COCc3cn(CC[C@@H]4O[C@@H](C)[C@@H](O)[C@@H](O)[C@@H]4O)nn3)(COCc3cn(CC[C@@H]4O[C@@H](C)[C@@H](O)[C@@H](O)[C@@H]4O)nn3)COCc3cn(CC[C@@H]4O[C@@H](C)[C@@H](O)[C@@H](O)[C@@H]4O)nn3)nn2)[C@@H](O)[C@H](O)[C@@H]1O [Dendrimer 8] below 40 µM?
met

Just wondering, is Kd of C[C@@H]1OC(CCCCC2O[C@@H](C)[C@@H](O)[C@@H](O)[C@@H]2O)[C@@H](O)[C@H](O)[C@@H]1O (stereo partly drawn) [Difucoside 5, 1,4-bis(fucopyranosyl)butane] below 40 µM?
not met

Just wondering, is Kd of C[C@@H]1O[C@@H](CCN=[N+]=[N-])[C@@H](O)[C@H](O)[C@@H]1O [Azide 1] below 40 µM?
not met

---

Hi there, I'd appreciate the recorded PotencyAzide1 for every entry that follows.
# Target or system: PHL (Photorhabdus asymbiotica)
# Measurement protocol: Hemagglutination inhibition assay with PHL (papain-treated human RBCs O)
# Assay type: cell-based
# Condition context: hemagglutination; relative to azide 1
Hey, just send me the number, nothing else.

PotencyAzide1 recorded for this compound, C[C@@H]1O[C@@H](CCn2cc(COc3c4cccc3Cc3cccc(c3OCc3cn(CC[C@@H]5O[C@@H](C)[C@@H](O)[C@@H](O)[C@@H]5O)nn3)Cc3cccc(c3OCc3cn(CC[C@@H]5O[C@@H](C)[C@@H](O)[C@@H](O)[C@@H]5O)nn3)Cc3cccc(c3OCc3cn(CC[C@@H]5O[C@@H](C)[C@@H](O)[C@@H](O)[C@@H]5O)nn3)C4)nn2)[C@@H](O)[C@H](O)[C@@H]1O , is 2

PotencyAzide1 recorded for this compound, C[C@@H]1O[C@@H](CCn2cc(COc3c4cc(C(C)(C)C)cc3Cc3cc(C(C)(C)C)cc(c3OCc3cn(CC[C@@H]5O[C@@H](C)[C@@H](O)[C@@H](O)[C@@H]5O)nn3)Cc3cc(C(C)(C)C)cc(c3OCc3cn(CC[C@@H]5O[C@@H](C)[C@@H](O)[C@@H](O)[C@@H]5O)nn3)Cc3cc(C(C)(C)C)cc(c3OCc3cn(CC[C@@H]5O[C@@H](C)[C@@H](O)[C@@H](O)[C@@H]5O)nn3)C4)nn2)[C@@H](O)[C@H](O)[C@@H]1O , is 2

PotencyAzide1 recorded for this compound, C[C@@H]1O[C@@H](CCn2cc(COCC(COCc3cn(CC[C@@H]4O[C@@H](C)[C@@H](O)[C@@H](O)[C@@H]4O)nn3)(COCc3cn(CC[C@@H]4O[C@@H](C)[C@@H](O)[C@@H](O)[C@@H]4O)nn3)COCC(COCc3cn(CC[C@@H]4O[C@@H](C)[C@@H](O)[C@@H](O)[C@@H]4O)nn3)(COCc3cn(CC[C@@H]4O[C@@H](C)[C@@H](O)[C@@H](O)[C@@H]4O)nn3)COCc3cn(CC[C@@H]4O[C@@H](C)[C@@H](O)[C@@H](O)[C@@H]4O)nn3)nn2)[C@@H](O)[C@H](O)[C@@H]1O , is 8

PotencyAzide1 recorded for this compound, C[C@@H]1O[C@@H](CCn2cc(COCC(COCc3cn(CC[C@@H]4O[C@@H](C)[C@@H](O)[C@@H](O)[C@@H]4O)nn3)(COCc3cn(CC[C@@H]4O[C@@H](C)[C@@H](O)[C@@H](O)[C@@H]4O)nn3)COCc3cn(CC[C@@H]4O[C@@H](C)[C@@H](O)[C@@H](O)[C@@H]4O)nn3)nn2)[C@@H](O)[C@H](O)[C@@H]1O , is 4

---

# Target or system: UniProt:C7BLE4
# Measurement protocol: Hemagglutination inhibition assay with PHL (papain-treated human RBCs O)
# Type: cell-based
# Condition context: RBC O, two independent measurements
Hi there, I'd appreciate the recorded MIC (minimal inhibitory concentration, hemagglutination by PHL) for every entry that follows.
Return type: number; implicit unit µM.

MIC (minimal inhibitory concentration, hemagglutination by PHL) recorded for this compound, C[C@@H]1O[C@@H](CCn2cc(COCC(COCc3cn(CC[C@@H]4O[C@@H](C)[C@@H](O)[C@@H](O)[C@@H]4O)nn3)(COCc3cn(CC[C@@H]4O[C@@H](C)[C@@H](O)[C@@H](O)[C@@H]4O)nn3)COCC(COCc3cn(CC[C@@H]4O[C@@H](C)[C@@H](O)[C@@H](O)[C@@H]4O)nn3)(COCc3cn(CC[C@@H]4O[C@@H](C)[C@@H](O)[C@@H](O)[C@@H]4O)nn3)COCc3cn(CC[C@@H]4O[C@@H](C)[C@@H](O)[C@@H](O)[C@@H]4O)nn3)nn2)[C@@H](O)[C@H](O)[C@@H]1O [Dendrimer 9] , is 25

MIC (minimal inhibitory concentration, hemagglutination by PHL) recorded for this compound, CO[C@@H]1O[C@@H](C)[C@@H](O)[C@@H](O)[C@@H]1O [α-Me-Fuc, methyl α-L-fucopyranoside, reference compound] , is 400

MIC (minimal inhibitory concentration, hemagglutination by PHL) recorded for this compound, C[C@@H]1OC(CCCCC2O[C@@H](C)[C@@H](O)[C@@H](O)[C@@H]2O)[C@@H](O)[C@H](O)[C@@H]1O (some centres unmarked) [Difucoside 5, 1,4-bis(fucopyranosyl)butane] , is 200

MIC (minimal inhibitory concentration, hemagglutination by PHL) recorded for this compound, C[C@@H]1O[C@@H](CCn2cc(COc3c4cccc3Cc3cccc(c3OCc3cn(CC[C@@H]5O[C@@H](C)[C@@H](O)[C@@H](O)[C@@H]5O)nn3)Cc3cccc(c3OCc3cn(CC[C@@H]5O[C@@H](C)[C@@H](O)[C@@H](O)[C@@H]5O)nn3)Cc3cccc(c3OCc3cn(CC[C@@H]5O[C@@H](C)[C@@H](O)[C@@H](O)[C@@H]5O)nn3)C4)nn2)[C@@H](O)[C@H](O)[C@@H]1O [Calixarene 7] , is 100

MIC (minimal inhibitory concentration, hemagglutination by PHL) recorded for this compound, C[C@@H]1O[C@@H](CCN=[N+]=[N-])[C@@H](O)[C@H](O)[C@@H]1O [Azide 1] , is 200

MIC (minimal inhibitory concentration, hemagglutination by PHL) recorded for this compound, C[C@@H]1O[C@@H](CCn2cc(COCC(COCc3cn(CC[C@@H]4O[C@@H](C)[C@@H](O)[C@@H](O)[C@@H]4O)nn3)(COCc3cn(CC[C@@H]4O[C@@H](C)[C@@H](O)[C@@H](O)[C@@H]4O)nn3)COCc3cn(CC[C@@H]4O[C@@H](C)[C@@H](O)[C@@H](O)[C@@H]4O)nn3)nn2)[C@@H](O)[C@H](O)[C@@H]1O [Dendrimer 8] , is 50

MIC (minimal inhibitory concentration, hemagglutination by PHL) recorded for this compound, C[C@@H]1O[C@@H](CCn2cc(COc3c4cc(C(C)(C)C)cc3Cc3cc(C(C)(C)C)cc(c3OCc3cn(CC[C@@H]5O[C@@H](C)[C@@H](O)[C@@H](O)[C@@H]5O)nn3)Cc3cc(C(C)(C)C)cc(c3OCc3cn(CC[C@@H]5O[C@@H](C)[C@@H](O)[C@@H](O)[C@@H]5O)nn3)Cc3cc(C(C)(C)C)cc(c3OCc3cn(CC[C@@H]5O[C@@H](C)[C@@H](O)[C@@H](O)[C@@H]5O)nn3)C4)nn2)[C@@H](O)[C@H](O)[C@@H]1O [Calixarene 6] , is 100
